Biological target: mouse ANO2 (Mus musculus)
Sequence (Q8CFW1 1-1002): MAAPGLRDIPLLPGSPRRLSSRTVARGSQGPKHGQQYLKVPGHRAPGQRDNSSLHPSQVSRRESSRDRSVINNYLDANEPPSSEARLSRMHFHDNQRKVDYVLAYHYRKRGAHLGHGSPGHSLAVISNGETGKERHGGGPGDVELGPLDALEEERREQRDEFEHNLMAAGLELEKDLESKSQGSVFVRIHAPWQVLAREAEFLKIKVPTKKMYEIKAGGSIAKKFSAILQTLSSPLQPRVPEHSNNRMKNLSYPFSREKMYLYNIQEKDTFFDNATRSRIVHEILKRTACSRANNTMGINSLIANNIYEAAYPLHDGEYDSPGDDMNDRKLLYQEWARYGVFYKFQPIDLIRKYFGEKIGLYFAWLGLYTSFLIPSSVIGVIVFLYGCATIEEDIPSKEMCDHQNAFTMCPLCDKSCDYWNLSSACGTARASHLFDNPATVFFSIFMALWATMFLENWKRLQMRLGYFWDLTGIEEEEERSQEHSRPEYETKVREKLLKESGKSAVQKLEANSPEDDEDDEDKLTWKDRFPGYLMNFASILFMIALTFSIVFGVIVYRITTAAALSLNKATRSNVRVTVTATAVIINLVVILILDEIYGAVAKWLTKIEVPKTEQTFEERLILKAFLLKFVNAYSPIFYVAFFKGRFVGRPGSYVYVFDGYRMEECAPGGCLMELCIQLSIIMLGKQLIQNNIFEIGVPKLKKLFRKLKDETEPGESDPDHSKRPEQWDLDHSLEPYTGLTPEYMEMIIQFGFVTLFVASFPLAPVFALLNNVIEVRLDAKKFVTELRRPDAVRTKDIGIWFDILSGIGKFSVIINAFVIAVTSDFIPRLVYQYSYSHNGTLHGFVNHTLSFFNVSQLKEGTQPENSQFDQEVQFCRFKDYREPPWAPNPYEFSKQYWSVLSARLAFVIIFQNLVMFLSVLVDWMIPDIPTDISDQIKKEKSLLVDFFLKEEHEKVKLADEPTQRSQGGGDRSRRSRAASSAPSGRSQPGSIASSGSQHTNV
Assay: YFP quenching assay in FRT cells expressing mouse ANO2
Settings: FRT cells expressing mouse ANO2 and YFP; read-out: IC50, ATP-induced activation of ANO2
pIC50: −log10 of the molar value.
attribute measured: pIC50

[ask] Look up and report measured pIC50 for this entry: "O=c1cc(-c2ccc(O)c(O)c2)oc2cc(O)cc(O)c12"
[reply] ~3.92

====

// pIC50 lookup, one value per entry
Biological target: human ANO1 (abc) (Homo sapiens, UniProt Q5XXA6, DEL476-501)
Sequence (Q5XXA6 with tags, fused parts or gaps isoform Q5XXA6-5 DEL539-564): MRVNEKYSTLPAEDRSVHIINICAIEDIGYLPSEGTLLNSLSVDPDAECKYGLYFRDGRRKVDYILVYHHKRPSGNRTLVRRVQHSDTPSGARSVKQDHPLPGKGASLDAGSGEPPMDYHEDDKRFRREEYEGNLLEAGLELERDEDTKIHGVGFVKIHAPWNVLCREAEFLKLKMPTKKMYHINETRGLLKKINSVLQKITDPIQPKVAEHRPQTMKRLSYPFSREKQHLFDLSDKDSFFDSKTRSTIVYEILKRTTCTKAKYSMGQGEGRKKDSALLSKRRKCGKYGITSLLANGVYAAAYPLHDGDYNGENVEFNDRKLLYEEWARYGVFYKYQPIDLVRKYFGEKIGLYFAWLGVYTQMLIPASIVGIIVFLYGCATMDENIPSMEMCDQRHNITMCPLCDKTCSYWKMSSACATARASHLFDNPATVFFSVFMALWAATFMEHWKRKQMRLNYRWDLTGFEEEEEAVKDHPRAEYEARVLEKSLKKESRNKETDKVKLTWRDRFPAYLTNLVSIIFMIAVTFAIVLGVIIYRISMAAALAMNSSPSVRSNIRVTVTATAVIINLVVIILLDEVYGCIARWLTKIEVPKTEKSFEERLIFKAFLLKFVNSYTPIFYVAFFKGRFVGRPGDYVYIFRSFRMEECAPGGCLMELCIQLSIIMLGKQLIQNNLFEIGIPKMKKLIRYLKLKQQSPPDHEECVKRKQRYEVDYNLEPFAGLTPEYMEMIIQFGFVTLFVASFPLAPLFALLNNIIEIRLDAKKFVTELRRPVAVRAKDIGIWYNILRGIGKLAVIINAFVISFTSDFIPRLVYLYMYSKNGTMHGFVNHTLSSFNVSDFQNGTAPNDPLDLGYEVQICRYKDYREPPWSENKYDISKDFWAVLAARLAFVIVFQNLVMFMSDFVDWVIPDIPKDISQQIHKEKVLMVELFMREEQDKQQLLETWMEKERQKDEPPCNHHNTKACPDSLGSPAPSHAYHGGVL
Assay: YFP fluorescence quenching assay (iodide influx) in FRT cells expressing human ANO1
Settings: FRT cells expressing ANO1 and YFP; ATP activation; mean ± S.E., n = 3; read-out: IC50, ANO1 inhibition (YFP fluorescence quenching)
Please treat pIC50 as minus the base-10 logarithm of the molar concentration.

>>> value("O=c1c(O)c(-c2ccccc2)oc2cc(O)cc(O)c12 [Galangin]")
5.02
>>> value("O=c1cc(-c2ccccc2)oc2cc(O)cc(O)c12 [Chrysin]")
4.82
>>> value("O=c1c(O)c(-c2ccc(O)cc2)oc2cc(O)cc(O)c12 [Kaempferol]")
4.84
>>> value("O=c1cc(-c2ccccc2)oc2cc(O)c(O)c(O)c12 [Baicalein]")
4.30

[ask] Look up and report measured pIC50 for this entry: O=c1cc(-c2ccc(O)cc2)oc2cc(O)cc(O)c12 [Apigenin]
[reply] 4.80
